parameter: melting point (°C)

Some compounds with known melting point results, for comparison:
# compound, parameter, reading
rows = [
    ("CCNc1nc(NC(C)CC)nc(OC)n1 (stereo unspecified)", "melting point", 87),
    ("O=Cc1cccc2c(Br)ccc([N+](=O)[O-])c12", "melting point", 135),
    ("Cc1c(C)c(CBr)c(CBr)c(CBr)c1CBr", "melting point", 205),
]

A = O=C(c1ccc2c(c1O)CC=CC2)c1cccc2ccccc12
B = O=C1C=C(NCc2ccc(Cl)c(Cl)c2)C(=O)c2ccccc21
C = C=C(C)CC(C)=O
List items by melting point in falling order. Sort the labels as requested; that list is your answer.
B, A, C

1 = O=C(O)CCc1cccc(O)c1
2 = FC(F)(F)C(Cl)(Cl)Cl
Which record would sort first by descending melting point, 1 or 2 ? // output: label of the selected item
1

a = Nc1c(Cl)ncnc1Cl
b = CC(CC(C)(C)C1CCCCC1)C1CCCCC1 (stereo unspecified)
c = CCCCCCO
# desc sort on melting point across 3 compounds Quick reminder: the answer is the labels in the order asked.
a, b, c

// data source = a melting point compilation (Tetko et al.)
